Target: SMARCA4 (Homo sapiens, UniProt P51532)
Construct: SMARCA2/SMARCA4 protein degradation selectivity in MV4-11 cells; endogenous in cells; host or cells: MV4-11
Sequence (P51532 whole entry): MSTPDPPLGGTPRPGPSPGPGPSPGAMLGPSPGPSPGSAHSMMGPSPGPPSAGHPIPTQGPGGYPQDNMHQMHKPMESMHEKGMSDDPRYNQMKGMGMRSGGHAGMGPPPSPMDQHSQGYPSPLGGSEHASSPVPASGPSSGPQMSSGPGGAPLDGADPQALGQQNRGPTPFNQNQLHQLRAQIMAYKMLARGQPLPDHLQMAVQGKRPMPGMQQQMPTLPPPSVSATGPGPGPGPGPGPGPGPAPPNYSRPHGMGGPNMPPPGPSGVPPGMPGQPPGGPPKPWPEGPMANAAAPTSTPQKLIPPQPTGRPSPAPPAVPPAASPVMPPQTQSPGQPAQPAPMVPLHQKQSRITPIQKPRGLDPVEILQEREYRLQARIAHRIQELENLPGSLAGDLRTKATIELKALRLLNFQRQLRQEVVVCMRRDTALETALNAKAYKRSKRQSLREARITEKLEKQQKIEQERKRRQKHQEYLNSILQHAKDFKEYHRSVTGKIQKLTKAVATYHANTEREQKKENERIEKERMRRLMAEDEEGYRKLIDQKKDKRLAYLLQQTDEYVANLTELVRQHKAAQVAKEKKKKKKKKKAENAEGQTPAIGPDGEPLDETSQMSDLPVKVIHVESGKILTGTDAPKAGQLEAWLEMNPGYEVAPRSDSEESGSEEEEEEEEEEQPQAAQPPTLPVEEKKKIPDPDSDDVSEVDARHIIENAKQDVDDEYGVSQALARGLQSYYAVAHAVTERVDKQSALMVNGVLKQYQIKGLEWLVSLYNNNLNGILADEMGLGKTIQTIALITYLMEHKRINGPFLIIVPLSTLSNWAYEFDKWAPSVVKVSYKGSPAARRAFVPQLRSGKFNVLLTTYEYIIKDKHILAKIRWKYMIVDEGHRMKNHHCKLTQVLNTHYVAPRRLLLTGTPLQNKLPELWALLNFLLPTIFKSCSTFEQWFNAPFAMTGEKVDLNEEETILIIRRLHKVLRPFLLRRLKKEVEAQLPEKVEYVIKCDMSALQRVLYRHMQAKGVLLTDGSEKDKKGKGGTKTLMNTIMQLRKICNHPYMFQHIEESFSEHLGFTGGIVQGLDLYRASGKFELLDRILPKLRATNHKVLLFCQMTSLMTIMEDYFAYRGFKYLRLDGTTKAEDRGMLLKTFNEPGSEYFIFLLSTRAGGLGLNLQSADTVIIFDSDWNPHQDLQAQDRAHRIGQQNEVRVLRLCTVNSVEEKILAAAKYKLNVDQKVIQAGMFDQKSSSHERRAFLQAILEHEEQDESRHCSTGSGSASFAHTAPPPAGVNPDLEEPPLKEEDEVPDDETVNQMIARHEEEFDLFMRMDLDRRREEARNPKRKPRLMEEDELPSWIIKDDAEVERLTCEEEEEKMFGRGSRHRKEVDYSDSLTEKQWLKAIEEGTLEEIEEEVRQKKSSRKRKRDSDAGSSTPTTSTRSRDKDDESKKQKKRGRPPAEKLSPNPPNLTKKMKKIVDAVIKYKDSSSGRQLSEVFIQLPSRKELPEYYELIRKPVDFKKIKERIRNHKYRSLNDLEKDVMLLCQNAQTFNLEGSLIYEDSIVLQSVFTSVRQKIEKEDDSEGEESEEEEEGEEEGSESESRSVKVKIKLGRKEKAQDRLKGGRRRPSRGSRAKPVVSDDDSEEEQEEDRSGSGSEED
Assay: SMARCA4 Western blot MV4-11 degradation
Format: cell-based
Settings: MV4-11 cells, 24 h; read-out: SMARCA4 MSD MV411 degradation 24 h: average Dmax %
Consider the following molecules and their measured Dmax readings.

| molecule | Dmax |
| --- | --- |
| Cc1ncsc1-c1ccc(CNC(=O)[C@@H]2C[C@@H](O)CN2C(=O)[C@@H](NC(=O)[C@H]2CC3(C2)C[C@H](N2CCC(c4cnc(N5CCc6[nH]c7nnc(-c8ccccc8O)cc7c6[C@H]5C)nc4)CC2)C3)C(C)(C)C)cc1 (single isomer, unassigned) | < 50% |
| Cc1ncsc1-c1ccc(CNC(=O)[C@@H]2C[C@@H](O)CN2C(=O)[C@@H](NC(=O)C2CC3(C2)CC(N2CCC(c4ccnc(N5CCc6[nH]c7nnc(-c8ccccc8O)cc7c6[C@H]5C)n4)CC2)C3)C(C)(C)C)cc1 (stereo partly shown) | 50 to 70% |
| Cc1ncsc1-c1ccc(CNC(=O)[C@@H]2C[C@@H](O)CN2C(=O)[C@@H](NC(=O)C2CC3(C2)CC(N2CCC(c4cnc(N5CCc6[nH]c7nnc(-c8ccccc8O)cc7c6[C@H]5C)nc4)CC2)C3)C(C)(C)C)cc1 (stereo partly shown) | < 50% |
| Cc1ncsc1-c1ccc(CNC(=O)[C@@H]2C[C@@H](O)CN2C(=O)[C@@H](NC(=O)C2CC3(C2)CC(N2CCC(c4ccnc(N5CCc6[nH]c7nnc(-c8ccccc8O)cc7c6[C@@H]5C)n4)CC2)C3)C(C)(C)C)cc1 (stereo partly shown) | 50 to 70% |

###

Molecular target: SMARCA2 (Homo sapiens)
Experiment: SMARCA2 Western blot MV4-11 degradation
Type: cell-based
Parameters: SMARCA2/SMARCA4 protein degradation selectivity in MV4-11 cells; endogenous in cells; host or cells: MV4-11
Details: MV4-11 cells, 24 h; read-out: SMARCA2 MSD MV411 degradation 24 h: Mean external-Abs DC50
DC50 reference

| compound | study.system | DC50 |
| --- | --- | --- |
| Cc1ncsc1-c1ccc(CNC(=O)[C@@H]2C[C@@H](O)CN2C(=O)[C@@H](NC(=O)C2CC3(C2)CC(N2CCC(c4ccnc(N5CCc6[nH]c7nnc(-c8ccccc8O)cc7c6[C@H]5C)n4)CC2)C3)C(C)(C)C)cc1 (stereo partly drawn) | SMARCA2 (Homo sapiens) | 501 to 1000 nM |
| Cc1ncsc1-c1ccc(CNC(=O)[C@@H]2C[C@@H](O)CN2C(=O)[C@@H](NC(=O)[C@H]2CC3(C2)C[C@H](N2CCC(c4cnc(N5CCc6[nH]c7nnc(-c8ccccc8O)cc7c6[C@H]5C)nc4)CC2)C3)C(C)(C)C)cc1 (single isomer, unassigned) [I-41] | SMARCA2 (Homo sapiens) | < 100 nM |
| Cc1ncsc1-c1ccc(CNC(=O)[C@@H]2C[C@@H](O)CN2C(=O)[C@@H](NC(=O)C2CC3(C2)CC(N2CCC(c4cnc(N5CCc6[nH]c7nnc(-c8ccccc8O)cc7c6[C@H]5C)nc4)CC2)C3)C(C)(C)C)cc1 (stereo partly drawn) | SMARCA2 (Homo sapiens) | < 100 nM |
| Cc1ncsc1-c1ccc(CNC(=O)[C@@H]2C[C@@H](O)CN2C(=O)[C@@H](NC(=O)C2CC3(C2)CC(N2CCC(c4cnc(N5CCc6[nH]c7nnc(-c8ccccc8O)cc7c6[C@@H]5C)nc4)CC2)C3)C(C)(C)C)cc1 (stereo partly drawn) | SMARCA2 (Homo sapiens) | 100 to 500 nM |
| Cc1ncsc1-c1ccc(CNC(=O)[C@@H]2C[C@@H](O)CN2C(=O)[C@@H](NC(=O)C2CC3(C2)CC(N2CCC(c4ccnc(N5CCc6[nH]c7nnc(-c8ccccc8O)cc7c6[C@@H]5C)n4)CC2)C3)C(C)(C)C)cc1 (stereo partly drawn) | SMARCA2 (Homo sapiens) | < 100 nM |
| Cc1ncsc1-c1ccc(CNC(=O)[C@@H]2C[C@@H](O)CN2C(=O)[C@@H](NC(=O)[C@H]2CC3(C2)C[C@H](N2CCC(c4cnc(N5CCc6[nH]c7nnc(-c8ccccc8O)cc7c6[C@H]5C)nc4)CC2)C3)C(C)(C)C)cc1 (single isomer, unassigned) [I-40] | SMARCA2 (Homo sapiens) | < 100 nM |

###

Each entry below lists one item and its recorded DC50 value.
Molecular target: UniProtKB P51531
Experiment: MSD SMARCA2 degradation in A549 cell line
Format: cell-based
Details: A549 cells, 24 h; read-out: SMARCA2 MSD A549 degradation 24 h: Average external-Abs DC50

| molecule | study.system | DC50 |
| --- | --- | --- |
| Cc1ncsc1-c1ccc(CNC(=O)[C@@H]2C[C@@H](O)CN2C(=O)[C@@H](NC(=O)C2CC3(C2)CC(N2CCC(c4ccnc(N5CCc6[nH]c7nnc(-c8ccccc8O)cc7c6[C@@H]5C)n4)CC2)C3)C(C)(C)C)cc1 (stereo partly drawn) | UniProtKB P51531 | 100 to 500 nM |
| Cc1ncsc1-c1ccc(CNC(=O)[C@@H]2C[C@@H](O)CN2C(=O)[C@@H](NC(=O)C2CC3(C2)CC(N2CCC(c4cnc(N5CCc6[nH]c7nnc(-c8ccccc8O)cc7c6[C@@H]5C)nc4)CC2)C3)C(C)(C)C)cc1 (stereo partly drawn) | UniProtKB P51531 | 100 to 500 nM |
| Cc1ncsc1-c1ccc(CNC(=O)[C@@H]2C[C@@H](O)CN2C(=O)[C@@H](NC(=O)[C@H]2CC3(C2)C[C@H](N2CCC(c4cnc(N5CCc6[nH]c7nnc(-c8ccccc8O)cc7c6[C@H]5C)nc4)CC2)C3)C(C)(C)C)cc1 (single isomer, unassigned) [I-41] | UniProtKB P51531 | 100 to 500 nM |
| Cc1ncsc1-c1ccc(CNC(=O)[C@@H]2C[C@@H](O)CN2C(=O)[C@@H](NC(=O)[C@H]2CC3(C2)C[C@H](N2CCC(c4cnc(N5CCc6[nH]c7nnc(-c8ccccc8O)cc7c6[C@H]5C)nc4)CC2)C3)C(C)(C)C)cc1 (single isomer, unassigned) [I-40] | UniProtKB P51531 | 100 to 500 nM |
| Cc1ncsc1-c1ccc(CNC(=O)[C@@H]2C[C@@H](O)CN2C(=O)[C@@H](NC(=O)C2CC3(C2)CC(N2CCC(c4ccnc(N5CCc6[nH]c7nnc(-c8ccccc8O)cc7c6[C@H]5C)n4)CC2)C3)C(C)(C)C)cc1 (stereo partly drawn) | UniProtKB P51531 | > 1000 nM |
| Cc1ncsc1-c1ccc(CNC(=O)[C@@H]2C[C@@H](O)CN2C(=O)[C@@H](NC(=O)C2CC3(C2)CC(N2CCC(c4cnc(N5CCc6[nH]c7nnc(-c8ccccc8O)cc7c6[C@H]5C)nc4)CC2)C3)C(C)(C)C)cc1 (stereo partly drawn) | UniProtKB P51531 | < 100 nM |

###

Biological target: SMARCA2 (Homo sapiens, UniProt P51531)
Sequence (P51531 whole entry): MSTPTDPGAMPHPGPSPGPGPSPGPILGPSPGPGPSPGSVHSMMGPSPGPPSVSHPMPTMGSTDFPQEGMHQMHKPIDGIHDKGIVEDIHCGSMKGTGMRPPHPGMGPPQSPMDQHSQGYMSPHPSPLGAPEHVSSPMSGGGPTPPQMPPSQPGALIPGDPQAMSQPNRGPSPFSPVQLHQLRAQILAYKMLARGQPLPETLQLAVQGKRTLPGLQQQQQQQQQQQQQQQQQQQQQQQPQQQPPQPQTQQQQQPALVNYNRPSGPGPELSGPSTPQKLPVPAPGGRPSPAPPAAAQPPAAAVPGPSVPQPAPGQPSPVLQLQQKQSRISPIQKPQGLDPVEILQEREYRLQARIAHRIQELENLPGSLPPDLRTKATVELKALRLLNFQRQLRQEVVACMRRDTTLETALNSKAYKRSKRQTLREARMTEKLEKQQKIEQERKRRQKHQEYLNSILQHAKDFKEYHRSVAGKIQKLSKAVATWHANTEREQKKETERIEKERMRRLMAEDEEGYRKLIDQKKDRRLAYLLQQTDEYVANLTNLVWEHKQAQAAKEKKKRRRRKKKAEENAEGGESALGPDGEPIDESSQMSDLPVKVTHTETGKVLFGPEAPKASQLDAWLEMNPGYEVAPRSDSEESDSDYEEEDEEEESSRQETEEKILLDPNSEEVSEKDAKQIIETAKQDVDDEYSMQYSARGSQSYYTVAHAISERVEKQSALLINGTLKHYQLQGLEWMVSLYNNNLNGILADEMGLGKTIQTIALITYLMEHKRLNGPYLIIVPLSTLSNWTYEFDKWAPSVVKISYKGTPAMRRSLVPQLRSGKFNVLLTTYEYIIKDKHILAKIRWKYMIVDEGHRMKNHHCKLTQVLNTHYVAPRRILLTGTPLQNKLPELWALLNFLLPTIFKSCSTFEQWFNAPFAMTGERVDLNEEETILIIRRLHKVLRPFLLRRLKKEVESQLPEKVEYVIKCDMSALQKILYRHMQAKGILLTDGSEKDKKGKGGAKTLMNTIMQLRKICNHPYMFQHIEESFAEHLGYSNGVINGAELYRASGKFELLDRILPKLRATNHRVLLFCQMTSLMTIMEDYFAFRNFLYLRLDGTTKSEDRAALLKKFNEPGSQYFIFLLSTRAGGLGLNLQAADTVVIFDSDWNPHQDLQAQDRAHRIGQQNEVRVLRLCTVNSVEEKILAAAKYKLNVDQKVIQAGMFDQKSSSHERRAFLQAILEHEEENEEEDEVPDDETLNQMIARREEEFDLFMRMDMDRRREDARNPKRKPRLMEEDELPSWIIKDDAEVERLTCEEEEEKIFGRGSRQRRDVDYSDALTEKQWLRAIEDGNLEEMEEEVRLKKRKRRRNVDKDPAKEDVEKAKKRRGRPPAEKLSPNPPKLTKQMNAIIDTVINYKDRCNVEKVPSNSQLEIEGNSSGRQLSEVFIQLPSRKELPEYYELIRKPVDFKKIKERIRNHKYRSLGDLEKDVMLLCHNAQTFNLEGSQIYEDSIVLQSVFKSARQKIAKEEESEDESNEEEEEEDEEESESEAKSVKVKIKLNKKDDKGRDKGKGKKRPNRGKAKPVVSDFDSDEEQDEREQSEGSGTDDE
Assay: MSD SMARCA2 degradation in A549 cell line
Type: cell-based
Conditions: A549 cells, 24 h
Parameter: Dmax. Scope: all listed entries.

| compound | Dmax |
| --- | --- |
| Cc1ncsc1-c1ccc(CNC(=O)[C@@H]2C[C@@H](O)CN2C(=O)[C@@H](NC(=O)C2CC3(C2)CC(N2CCC(c4ccnc(N5CCc6[nH]c7nnc(-c8ccccc8O)cc7c6[C@H]5C)n4)CC2)C3)C(C)(C)C)cc1 (some centres unmarked) [I-13] | < 50% |
| Cc1ncsc1-c1ccc(CNC(=O)[C@@H]2C[C@@H](O)CN2C(=O)[C@@H](NC(=O)C2CC3(C2)CC(N2CCC(c4cnc(N5CCc6[nH]c7nnc(-c8ccccc8O)cc7c6[C@@H]5C)nc4)CC2)C3)C(C)(C)C)cc1 (some centres unmarked) [I-37] | 70 to 90% |
| Cc1ncsc1-c1ccc(CNC(=O)[C@@H]2C[C@@H](O)CN2C(=O)[C@@H](NC(=O)C2CC3(C2)CC(N2CCC(c4ccnc(N5CCc6[nH]c7nnc(-c8ccccc8O)cc7c6[C@@H]5C)n4)CC2)C3)C(C)(C)C)cc1 (some centres unmarked) [I-14] | 70 to 90% |
| Cc1ncsc1-c1ccc(CNC(=O)[C@@H]2C[C@@H](O)CN2C(=O)[C@@H](NC(=O)[C@H]2CC3(C2)C[C@H](N2CCC(c4cnc(N5CCc6[nH]c7nnc(-c8ccccc8O)cc7c6[C@H]5C)nc4)CC2)C3)C(C)(C)C)cc1 (single isomer, unassigned) [I-40] | 70 to 90% |
| Cc1ncsc1-c1ccc(CNC(=O)[C@@H]2C[C@@H](O)CN2C(=O)[C@@H](NC(=O)C2CC3(C2)CC(N2CCC(c4cnc(N5CCc6[nH]c7nnc(-c8ccccc8O)cc7c6[C@H]5C)nc4)CC2)C3)C(C)(C)C)cc1 (some centres unmarked) [I-38] | > 90% |
